Target or test system: MAP2K2 (human) (UniProt P36507)
Sequence (P36507 whole entry, looked up): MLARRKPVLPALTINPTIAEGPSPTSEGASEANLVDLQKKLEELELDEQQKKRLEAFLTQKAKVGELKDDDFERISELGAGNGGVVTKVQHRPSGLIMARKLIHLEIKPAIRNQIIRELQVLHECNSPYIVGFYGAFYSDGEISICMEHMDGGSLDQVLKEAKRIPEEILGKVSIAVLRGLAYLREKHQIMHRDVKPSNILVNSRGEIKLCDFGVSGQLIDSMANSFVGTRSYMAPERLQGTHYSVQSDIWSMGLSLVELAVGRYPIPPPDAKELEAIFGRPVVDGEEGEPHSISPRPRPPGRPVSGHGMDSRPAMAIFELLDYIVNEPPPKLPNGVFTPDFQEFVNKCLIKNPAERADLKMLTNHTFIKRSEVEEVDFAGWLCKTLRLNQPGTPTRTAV
Assay name: KINOMEscan competition binding
Measurement parameters: compound 10.0 µM
Measure: kinase still bound, per cent of control

IN: Identify measured kinase still bound, per cent of control corresponding to NC(=O)Nc1cc(-c2cccc(F)c2)sc1C(=O)N[C@@H]1CCCNC1
OUT: 0%

IN: Look up kinase still bound, per cent of control of COc1cc2ncn(-c3cc(OCc4ccccc4C(F)(F)F)c(C(N)=O)s3)c2cc1OC and report it.
OUT: 85%

IN: Using known records, supply kinase still bound, per cent of control for CN(C)C/C=C/C(=O)Nc1ccc(C(=O)Nc2cccc(Nc3nccc(-c4cccnc4)n3)c2)cc1
OUT: 87%

IN: Let me know recorded kinase still bound, per cent of control for CCN(CC)CCCCNc1ncc2cc(-c3cc(OC)cc(OC)c3)c(NC(=O)NC(C)(C)C)nc2n1 , thanks.
OUT: 100%

IN: Entry CCN(CC)CCCCNc1ncc2c(n1)N(C)C(=O)N(c1c(Cl)c(OC)cc(OC)c1Cl)C2 needs its kinase still bound, per cent of control filled in; supply it.
OUT: 100%

IN: Indicate its recorded kinase still bound, per cent of control; the compound in question is O=C1NC(=O)/C(=C/c2ccc3nccc(-c4ccncc4)c3c2)S1
OUT: 4.4%

IN: Item C=CC(=O)Nc1ccc(CN(C(=O)Nc2c(Cl)c(OC)cc(OC)c2Cl)c2cc(Nc3ccc(N4CCN(C)CC4)cc3)ncn2)cc1 : provide kinase still bound, per cent of control
OUT: 100%

IN: Could you please provide reported kinase still bound, per cent of control for C=CC(=O)Nc1cc(-n2c(=O)ccc3cnc4ccc(-c5cn[nH]c5)cc4c32)ccc1C ? Thanks!
OUT: 83%

IN: Please indicate kinase still bound, per cent of control recorded for COc1cc2ncnc(-n3nc(-c4ccccn4)nc3N)c2cc1OC
OUT: 74%

IN: Quote kinase still bound, per cent of control reported for COc1cc(N2CCN(C)CC2)ccc1Nc1ncc2c(n1)N(C)c1ccccc1C(=O)N2C please.
OUT: 100%

IN: Note down kinase still bound, per cent of control recorded for C[C@@H](Oc1cc(-c2cnn(C3CCNCC3)c2)cnc1N)c1c(Cl)ccc(F)c1Cl
OUT: 54%

IN: State, in one line, measured kinase still bound, per cent of control of O=c1cc(N2CCOCC2)oc2c(-c3cccc4c3sc3ccccc34)cccc12
OUT: 97%

IN: Look up and state reported kinase still bound, per cent of control for CS(=O)(=O)N1CCN(Cc2cc3nc(-c4cccc5[nH]ncc45)nc(N4CCOCC4)c3s2)CC1
OUT: 100%

* * *

Target or test system: CAMK2A (human)
Assay name: KINOMEscan competition binding
Measurement parameters: compound 10.0 µM
Please provide measured kinase still bound, per cent of control for the entries that follow.
# number only, unit % dropped from output

IN: Write down the reported kinase still bound, per cent of control (system: CAMK2A (human)) of CS(=O)(=O)N1CCN(Cc2cc3nc(-c4cccc5[nH]ncc45)nc(N4CCOCC4)c3s2)CC1
OUT: 100

IN: Answer briefly: kinase still bound, per cent of control recorded on CAMK2A (human) for O=C(Nc1cccc(Nc2ncc(Br)c(NCCc3cnc[nH]3)n2)c1)N1CCCC1
OUT: 27

IN: Determine reported kinase still bound, per cent of control for Cc1n[nH]c2ccc(-c3cncc(OC[C@@H](N)Cc4c[nH]c5ccccc45)c3)cc12 ; test system: CAMK2A (human).
OUT: 0.7

IN: Give kinase still bound, per cent of control; test system CAMK2A (human); compound CNC(=O)c1cc(Oc2ccc(NC(=O)Nc3ccc(Cl)c(C(F)(F)F)c3)cc2)ccn1
OUT: 94

IN: Provide the reported kinase still bound, per cent of control (system: CAMK2A (human)) for C=CC(=O)Nc1cc(-n2c(=O)ccc3cnc4ccc(-c5cn[nH]c5)cc4c32)ccc1C
OUT: 21

IN: Provide CAMK2A (human) kinase still bound, per cent of control reading for N#CCNC(=O)c1ccc(-c2ccnc(Nc3ccc(N4CCOCC4)cc3)n2)cc1 .
OUT: 26

IN: Find the measured kinase still bound, per cent of control of C[C@@H](Oc1cc(-c2cnn(C3CCNCC3)c2)cnc1N)c1c(Cl)ccc(F)c1Cl with CAMK2A (human) as test system.
OUT: 100

IN: # assay system CAMK2A (human): give kinase still bound, per cent of control of CN(C)C/C=C/C(=O)Nc1ccc(C(=O)Nc2cccc(Nc3nccc(-c4cccnc4)n3)c2)cc1
OUT: 54

IN: Please respond with reported kinase still bound, per cent of control (system CAMK2A (human)) for C=CC(=O)Nc1ccc(CN(C(=O)Nc2c(Cl)c(OC)cc(OC)c2Cl)c2cc(Nc3ccc(N4CCN(C)CC4)cc3)ncn2)cc1 .
OUT: 100
